# TEST_DETAILS: qHTS of TDP-43 Inhibitors; further: nearly all actives have a fitted effect of over 50% in size
# STUDY_CONDITIONS: TDP-43 expressing yeast growth rescue, BacTiter-Glo, 24 h; series mostly up to 46.1 µM
# Source text: The goal of this project is to identify new chemical probes capable of reversing the toxicity associated with TDP-43 which is associated with frontotemporal lobar degeneration and amyotrophic lateral sclerosis. […] To this end, a miniaturized assay was developed to be screened against the Molecular Libraries Small Molecule Repository (MLSMR) to discover TDP-43 inhibitors. Please note that in the set-up this yeast-based assay compounds that inhibit as TDP-43, have a read-out as activators. […]
Screen size: about 410,000 compounds; about 7,200 (1.8%) were called active. Inconclusive results (about 7%) are left out. The call rests on the fitted dose curve; in most records, active means well fitted activation curve with a large enough effect; inconclusive means small, poorly fitted or top-dose-only effect, or another doubt; inactive means no such curve, though single readings can be large or run the other way. For the sample, actives were picked, then their nearest neighbours and some compounds at random.
Result category, one only: label 1 = active, label 0 = inactive

Example cases with answers are listed next.
Cc1ccc(CNC(=O)CCc2c(C)nc3nc(CNC(=O)OC(C)(C)C)nn3c2C)cc1    label 0
COCCNc1cc(-c2ccccc2)nc2cc(-c3cccc(F)c3)nn12    label 1

QUERY: How was "Cc1ccc(-n2c3nc(=O)[nH]c(=O)c-3cc3c(Cl)cccc32)cc1" classified in this test?
RESULT: label 0

QUERY: How was "CCNC(=O)Cn1nc(C)n2c(cc3c(OC)cccc32)c1=O" classified in this test?
RESULT: label 0

QUERY: How was "Cc1cc(OCc2ccc(C(=O)Nc3ccc(C(=O)O)cc3)o2)ccc1Cl" classified in this test?
RESULT: label 0

###

# TEST_DETAILS: qHTS of TDP-43 Inhibitors; further: nearly all actives have a fitted effect of over 50% in size
# STUDY_CONDITIONS: TDP-43 expressing yeast growth rescue, BacTiter-Glo, 24 h; series mostly up to 46.1 µM
# From the text: The goal of this project is to identify new chemical probes capable of reversing the toxicity associated with TDP-43 which is associated with frontotemporal lobar degeneration and amyotrophic lateral sclerosis. […] To this end, a miniaturized assay was developed to be screened against the Molecular Libraries Small Molecule Repository (MLSMR) to discover TDP-43 inhibitors. Please note that in the set-up this yeast-based assay compounds that inhibit as TDP-43, have a read-out as activators. […]
Hit rate of the full screen: of about 410,000 compounds, about 7,200 (1.8%) were called active. Not shown: some 7% with an inconclusive outcome. Calls come from the whole dose curve; as a rule, active = well fitted activation curve with a large enough effect; inconclusive = small, poorly fitted or top-dose-only effect, or another doubt; inactive = no such curve, though single readings can be large or run the other way. Many of the other results were omitted from the sample, so actives are more common in it than they were.
Result category, one only: active, inactive

CCCn1nc(C(=O)OCc2nc(N)nc(Nc3ccccc3C)n2)c2ccccc2c1=O    inactive
CC1(C(=O)NCc2ccco2)Cc2c(-c3ccc4c(c3)OCO4)ccnc2O1 (centres undefined)    inactive

QUERY: How was "Cc1ccccc1NC(=O)Cn1cc(C(=O)c2cccs2)c2ccccc21" classified in this test?
RESULT: inactive

QUERY: How was "COc1nc(N=C(N)N)nc2c(C)cccc12" classified in this test?
RESULT: inactive

QUERY: How was "COc1cc(C(=O)N2CCN(C(=O)COc3cccc(C)c3)CC2)cc(OC)c1OC" classified in this test?
RESULT: inactive

QUERY: How was "Cc1ccc(C(=O)OCc2nc(N)nc(Nc3ccccc3C)n2)cc1" classified in this test?
RESULT: active

QUERY: How was CCC(=O)N1CCc2cc(S(=O)(=O)NC(C(=O)Nc3ccc(C(C)=O)cc3)C(C)C)ccc21 (centres undefined) classified in this test?
RESULT: inactive

QUERY: How was CCC(C)c1ccc2oc(-c3ccc(NC(=O)c4cc5ccccc5o4)cc3)nc2c1 (centres undefined) classified in this test?
RESULT: inactive

QUERY: How was CCOC(=O)C1CCCN(C(=O)Cn2ncc3c(C)n(Cc4ccc(F)cc4)c(C)c3c2=O)C1 (centres undefined) classified in this test?
RESULT: inactive

QUERY: How was "COc1ccc(C(=O)N2CCC(c3nc4ccccc4o3)CC2)cc1" classified in this test?
RESULT: inactive

QUERY: How was "O=C(COC(=O)c1ccc(Cl)nc1)NCc1cccs1" classified in this test?
RESULT: inactive

QUERY: How was COc1cccc(CNC(=O)C(=O)NCC(c2cccs2)S(=O)(=O)c2ccccc2)c1 (centres undefined) classified in this test?
RESULT: inactive
